Biological target: PI3K beta (Homo sapiens)
Construct: for the full-length p110-b subunit are generated and fused by overlapping PCR; p85(iSH2) fusion partner (see partner chain) (N); His tag (C); Tn5 (Trichoplusia ni) or TiniPro insect cells
Sequence (P42338 with tags, fused parts or gaps limits assumed): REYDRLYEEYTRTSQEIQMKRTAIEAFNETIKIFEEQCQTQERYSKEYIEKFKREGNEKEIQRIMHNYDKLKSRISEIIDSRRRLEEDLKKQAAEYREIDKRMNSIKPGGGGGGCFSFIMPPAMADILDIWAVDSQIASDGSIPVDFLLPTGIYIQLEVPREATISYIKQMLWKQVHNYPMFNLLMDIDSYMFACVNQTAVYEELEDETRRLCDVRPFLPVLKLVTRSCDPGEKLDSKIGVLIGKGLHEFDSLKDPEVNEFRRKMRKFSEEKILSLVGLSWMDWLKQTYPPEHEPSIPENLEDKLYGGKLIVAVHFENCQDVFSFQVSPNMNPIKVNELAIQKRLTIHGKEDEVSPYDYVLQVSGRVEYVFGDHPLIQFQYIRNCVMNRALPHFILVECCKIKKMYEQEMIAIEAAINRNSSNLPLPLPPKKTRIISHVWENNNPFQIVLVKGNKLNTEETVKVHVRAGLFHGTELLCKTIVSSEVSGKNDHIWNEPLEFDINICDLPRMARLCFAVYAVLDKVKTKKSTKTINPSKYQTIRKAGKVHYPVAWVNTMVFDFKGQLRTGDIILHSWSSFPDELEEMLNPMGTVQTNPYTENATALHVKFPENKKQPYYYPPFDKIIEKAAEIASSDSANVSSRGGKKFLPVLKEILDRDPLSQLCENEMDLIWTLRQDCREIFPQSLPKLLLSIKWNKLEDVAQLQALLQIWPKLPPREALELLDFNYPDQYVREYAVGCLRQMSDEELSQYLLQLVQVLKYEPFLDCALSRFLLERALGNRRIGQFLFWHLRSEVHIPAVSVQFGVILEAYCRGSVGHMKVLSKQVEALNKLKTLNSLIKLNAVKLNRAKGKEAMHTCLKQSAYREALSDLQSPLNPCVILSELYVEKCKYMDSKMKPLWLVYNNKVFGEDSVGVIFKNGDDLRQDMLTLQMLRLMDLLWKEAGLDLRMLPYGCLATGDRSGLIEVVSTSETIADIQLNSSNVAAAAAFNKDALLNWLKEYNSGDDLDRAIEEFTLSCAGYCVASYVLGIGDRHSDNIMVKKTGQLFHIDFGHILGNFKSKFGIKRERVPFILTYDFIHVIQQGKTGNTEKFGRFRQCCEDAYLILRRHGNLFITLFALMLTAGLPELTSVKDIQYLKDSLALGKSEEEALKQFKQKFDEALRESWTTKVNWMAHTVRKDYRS
Assay: PI3K beta kinase assay (Kinase-Glo luminescence)
pIC50: −log10 of the molar value.
Measured pIC50, listed per entry.
Measurement label: pIC50

Smiles data: Cc1nn(C(C)C)cc1-n1c(=O)n(C)c2cnc3ccc(-c4cncc(C(C)(C)O)c4)cc3c21
Measured on: PI3K beta (Homo sapiens)
Measured result: 7.40

Smiles data: COCCn1c(=O)n(C)c2ncc(-c3ccc4ncc5c(c4c3)n(-c3cn(C)nc3C)c(=O)n5C)cc21
Measured on: PI3K beta (Homo sapiens)
Measured result: 6.89

Smiles data: Cc1ncc(-c2ccc3ncc4c(c3c2)n(-c2cn(C)nc2Cl)c(=O)n4C)cc1N
Measured on: PI3K beta (Homo sapiens)
Measured result: 7.55

Smiles data: Cc1nn(C(C)C)cc1-n1c(=O)n(C)c2cnc3ccc(-c4cnc(N)c(C(F)(F)F)c4)cc3c21
Measured on: PI3K beta (Homo sapiens)
Measured result: 7.80

Smiles data: CCOCc1cc(-c2ccc3ncc4c(c3c2)n(-c2cn(C(C)C)nc2C)c(=O)n4C)cnc1N
Measured on: PI3K beta (Homo sapiens)
Measured result: 7.09

Smiles data: Cc1nn(C(C)C)cc1-n1c(=O)n(C)c2cnc3ccc(-c4cnc(N)c(CO)c4)cc3c21
Measured on: PI3K beta (Homo sapiens)
Measured result: 7.06

Smiles data: CCOc1cc(-c2ccc3ncc4c(c3c2)n(-c2c(C)nn(CCOC)c2C)c(=O)n4C)cnc1C
Measured on: PI3K beta (Homo sapiens)
Measured result: 6.86

Source: patent US20140005163A1
